# Tested on: Human immunodeficiency virus 1
# assay_comment: Inhibitory activity against 103N strain of HIV-I in MT-4 cell was determined
# Type: functional, organism-based
# experimental_setup: Human immunodeficiency virus 1, MT4
measure_name: IC50 (nM)

Look over these answered cases.
CSc1nc(Cc2c(Cl)cccc2Cl)nc(Nc2ccc(C#N)cc2)n1 = 336
N#Cc1ccc(Nc2nc(Cl)nc(Cc3c(Cl)cccc3Cl)n2)cc1 = 10000
Cc1cc(C)c(C)c(Cc2nc(N)nc(Nc3ccc(C#N)cc3)n2)c1C = 85

a: N#Cc1ccc(Nc2nc(Cc3c(Cl)cccc3Cl)nc(NN)n2)cc1
b: CN(C)CCOc1nc(Cc2c(Cl)cccc2Cl)nc(Nc2ccc(C#N)cc2)n1
c: CC(C)NC(=O)Nc1nc(Cc2c(Cl)cccc2Cl)nc(Nc2ccc(C#N)cc2)n1
d: N#Cc1ccc(Nc2nc(F)nc(Cc3c(Cl)cccc3Cl)n2)cc1
e: N#Cc1ccc(Nc2nc(N)nc(Cc3c(Cl)cc(Cl)cc3Cl)n2)cc1
input: Let's sort these by IC50, smallest first. Go ahead? Response format: the labels, sorted as the prompt asks.
output: e, b, a, c, d
(e: 16 nM, b: 37 nM, a: 1740 nM, c: 7550 nM, d: 52600 nM)

---

# System: Human immunodeficiency virus 1
# assay_comment: Inhibitory activity against LAI strain of HIV-I in MT-4 cell was determined
# Type: functional, organism-based
# experimental_setup: Human immunodeficiency virus 1, MT4
pIC50: −log10 of the molar value.
measure_name: pIC50

Look over these answered cases.
CCOC(=O)Nc1nc(Cc2c(Cl)cccc2Cl)nc(Nc2ccc(C#N)cc2)n1 = 7.92
CC(=N)Nc1nc(Cc2c(Cl)cccc2Cl)nc(Nc2ccc(C#N)cc2)n1 = 8.57
N#Cc1ccc(Nc2nc(N)nc(Oc3c(Cl)cccc3Cl)n2)cc1 = 8.51
N#Cc1ccc(Nc2nc(Cc3c(Cl)cccc3Cl)nc(NN)n2)cc1 = 6.21
Cc1cc(C)c(C)c(Cc2nc(N)nc(Nc3ccc(C#N)cc3)n2)c1C = 8.34
Cc1cc(C)c(Sc2ncnc(Nc3ccc(C#N)cc3)n2)c(C)c1 = 8.70

A: Cc1cc(Br)cc(Cl)c1Oc1nc(N)nc(Nc2ccc(C#N)cc2)n1
B: N#Cc1ccc(Nc2nc(F)nc(Cc3c(Cl)cccc3Cl)n2)cc1
C: N#Cc1ccc(Nc2nc(N)nc(Cc3ccccc3)n2)cc1
D: Cc1cc(C#N)cc(C)c1Nc1ncnc(Nc2ccc(C#N)cc2)n1
input: Put the entries in order of pIC50, starting with the largest number. Response format: the labels, sorted as the prompt asks.
output: D, A, C, B

A: N#Cc1ccc(Nc2nc(S)nc(Cc3c(Cl)cccc3Cl)n2)cc1
B: Cc1cc(C)c(Sc2nc(N)nc(Nc3ccc(C#N)cc3)n2)c(C)c1
C: Cc1cc(I)cc(C)c1Oc1nc(N)nc(Nc2ccc(C#N)cc2)n1
D: CC(C)NC(=O)Nc1nc(Cc2c(Cl)cccc2Cl)nc(Nc2ccc(C#N)cc2)n1
input: Let's sort these by pIC50, smallest first. Go ahead? Response format: the labels, sorted as the prompt asks.
output: D, A, C, B

a: COc1nc(Cc2c(Cl)cccc2Cl)nc(Nc2ccc(C#N)cc2)n1
b: CCCNc1nc(Cc2c(Cl)cccc2Cl)nc(Nc2ccc(C#N)cc2)n1
input: Looking only at measured pIC50, which entry is lower, a or b ? Your answer should be the label of the entry you select.
output: b

A: CC(=O)Nc1nc(Cc2c(Cl)cccc2Cl)nc(Nc2ccc(C#N)cc2)n1
B: Cc1ccc(C)c(Cc2nc(N)nc(Nc3ccc(C#N)cc3)n2)c1
C: Cc1cc(Br)cc(C)c1Nc1ncnc(Nc2ccc(C#N)cc2)n1
input: Let's sort these by pIC50, smallest first. Go ahead? Response format: the labels, sorted as the prompt asks.
output: A, B, C

---

# System: Human immunodeficiency virus 1
# assay_comment: Inhibitory activity against 181C strain of HIV-I in MT-4 cell was determined
# Format: functional, organism-based
# experimental_setup: Human immunodeficiency virus 1, MT4
measure_name: IC50 (nM)

Cc1cc(C)c(Sc2ncnc(Nc3ccc(C#N)cc3)n2)c(C)c1 = 13
N#Cc1ccc(Nc2nc(Cl)nc(Cc3c(Cl)cccc3Cl)n2)cc1 = 10000
N#Cc1ccc(Nc2nc(N)nc(Oc3c(F)cc(F)cc3F)n2)cc1 = 3650
N#Cc1ccc(Nc2nc(F)nc(Cc3c(Cl)cccc3Cl)n2)cc1 = 100000
Cc1cc(C#N)cc(C)c1Oc1ncnc(Nc2ccc(C#N)cc2)n1 = 501
CC(C)NC(=O)Nc1nc(Cc2c(Cl)cccc2Cl)nc(Nc2ccc(C#N)cc2)n1 = 43800
Cc1cc([N+](=O)[O-])cc(C)c1Oc1nc(N)nc(Nc2ccc(C#N)cc2)n1 = 57
N#Cc1ccc(Nc2nc(N)nc(Cc3c(Cl)ccc(Cl)c3Cl)n2)cc1 = 286
N#Cc1ccc(Nc2nc(N)nc(Oc3c(Cl)cc(Cl)cc3Cl)n2)cc1 = 62
C[S+]([O-])c1nc(Cc2c(Cl)cccc2Cl)nc(Nc2ccc(C#N)cc2)n1 (stereo not given) = 68500

I: N#Cc1ccc(Nc2nc(N)nc(Oc3c(Br)cc(Br)cc3Br)n2)cc1
II: CC(=O)Nc1nc(Cc2c(Cl)cccc2Cl)nc(Nc2ccc(C#N)cc2)n1
input: Looking only at measured IC50, which entry is lower, I or II ? Your answer should be the label of the entry you select.
output: I
(I: 61 nM, II: 100000 nM)

I: Cc1cc(C)c(C)c(Cc2nc(N)nc(Nc3ccc(C#N)cc3)n2)c1C
II: Cc1cc(Br)cc(Cl)c1Oc1nc(N)nc(Nc2ccc(C#N)cc2)n1
input: Between the two listed entries I and II , which has its IC50 at the higher number? Your answer should be the label of the entry you select.
output: I

---

# Tested on: Human immunodeficiency virus 1
# assay_comment: Inhibitory activity against 103N strain of HIV-I in MT-4 cell was determined
# Format: functional, organism-based
# experimental_setup: Human immunodeficiency virus 1, MT4
pIC50: −log10 of the molar value.
measure_name: pIC50

Look over these answered cases.
CONc1nc(Cc2c(Cl)cccc2Cl)nc(Nc2ccc(C#N)cc2)n1 = 7.09
CCOC(=O)Nc1nc(Cc2c(Cl)cccc2Cl)nc(Nc2ccc(C#N)cc2)n1 = 6.26

1: N#Cc1ccc(Nc2nc(N)nc(Cc3c(Cl)ccc(Cl)c3Cl)n2)cc1
2: Cc1cc(C)c(Sc2nc(N)nc(Nc3ccc(C#N)cc3)n2)c(C)c1
input: Looking only at measured pIC50, which entry is lower, 1 or 2 ? Your answer should be the label of the entry you select.
output: 1
(1: 7.20, 2: 8.22)

---

# Tested on: Human immunodeficiency virus 1
# assay_comment: Inhibitory activity against 103N strain of HIV-I in MT-4 cell was determined
# Assay type: functional, organism-based
# experimental_setup: Human immunodeficiency virus 1, MT4
pIC50: −log10 of the molar value.
measure_name: pIC50

Look over these answered cases.
Cc1cc([N+](=O)[O-])cc(C)c1Oc1nc(N)nc(Nc2ccc(C#N)cc2)n1 = 8.10
CNc1nc(Cc2c(Cl)cccc2Cl)nc(Nc2ccc(C#N)cc2)n1 = 6.86
COc1cccc(OC)c1Oc1nc(N)nc(Nc2ccc(C#N)cc2)n1 = 6.28
N#Cc1ccc(Nc2nc(O)nc(Cc3c(Cl)cccc3Cl)n2)cc1 = 6.22
Cc1cc(C#N)cc(C)c1Oc1ncnc(Nc2ccc(C#N)cc2)n1 = 7.70
N#Cc1ccc(Nc2nc(Cc3c(Cl)cccc3Cl)nc(N=[N+]=[N-])n2)cc1 = 6.65
Cc1cccc(C)c1Cc1nc(N)nc(Nc2ccc(C#N)cc2)n1 = 7.38
Cc1cc(Br)cc(Cl)c1Oc1nc(N)nc(Nc2ccc(C#N)cc2)n1 = 8.22
Cc1cc(I)cc(C)c1Oc1nc(N)nc(Nc2ccc(C#N)cc2)n1 = 8.00

I: N#Cc1ccc(Nc2nc(N)nc(Cc3ccc(Cl)cc3Cl)n2)cc1
II: N#Cc1ccc(Nc2nc(S)nc(Cc3c(Cl)cccc3Cl)n2)cc1
input: Between the two listed entries I and II , which has its pIC50 at the higher number? Your answer should be the label of the entry you select.
output: I
(I: 6.56, II: 6.14)

---

# System: Human immunodeficiency virus 1
# assay_comment: Inhibitory activity against 181C strain of HIV-I in MT-4 cell was determined
# Assay type: functional, organism-based
# experimental_setup: Human immunodeficiency virus 1, MT4
pIC50: −log10 of the molar value.
measure_name: pIC50

CN(C)CCNc1nc(Cc2c(Cl)cccc2Cl)nc(Nc2ccc(C#N)cc2)n1 = 6.42
N#Cc1ccc(Nc2nc(N)nc(Cc3ccc(Cl)cc3Cl)n2)cc1 = 6.10
Cc1cccc(C)c1Cc1nc(N)nc(Nc2ccc(C#N)cc2)n1 = 6.65

a: COc1nc(Cc2c(Cl)cccc2Cl)nc(Nc2ccc(C#N)cc2)n1
b: CN(C)c1nc(Cc2c(Cl)cccc2Cl)nc(Nc2ccc(C#N)cc2)n1
c: Cc1cc(Br)cc(C)c1Nc1ncnc(Nc2ccc(C#N)cc2)n1
input: Let's sort these by pIC50, smallest first. Go ahead? Response format: the labels, sorted as the prompt asks.
output: b, a, c
(b: 4.87, a: 5.84, c: 7.80)

1: CSc1nc(Cc2c(Cl)cccc2Cl)nc(Nc2ccc(C#N)cc2)n1
2: N#Cc1ccc(Nc2nc(N)nc(Oc3c(Cl)cccc3Cl)n2)cc1
input: Between the two listed entries 1 and 2 , which has its pIC50 at the higher number? Your answer should be the label of the entry you select.
output: 2
(2: 6.55, 1: 5.63)
